Property: folding stability dG unfold; scope: individual sequences
# Measurement Description: folding stability dG unfold from trypsin proteolysis; higher = more stable
Experimental Endpoint: folding stability dG unfold

| Sequence Code | Value |
| --- | --- |
| SAGGSAGGSAGGGLRKITFETPLSDFEELVKALGLNVVSAEVEPGAGGLAKVTLLVEEGSAGGSAGGSAGGS [r10_999_TrMRF] | 1.04 kcal/mol |
| SAGGSAGGSKAEVVEEKEIFTFPNGFVIKLTKVKNENGEEFEFIEIVPLPPELTEEELKKLKESAGGSAGGS [r12_775_TrROS_Hall] | 0.711 kcal/mol |
| SAGGSAGGSAGKKELTFKDKNGKTITVTLEDGEIKEIKIEKPPKPKVVKTEKKYVPKEELSAGGSAGGSAGG [r17_287_TrROS_Hall] | 0.0355 kcal/mol |
| SAGGSMITLTFPAPREVAVPAIEAAAEKHGVTILSVEFDPATGRLTVTVDSSLPEEEVRAMVAAVLASAGGS [r8_338_JUSTAS] | 4.75 kcal/mol |
| SAGGSAGGSAGGKKIHLFMPKEVAEKFAKELEKLGIDSKEVEIEFHEVDIPPSLPPELKSAGGSAGGSAGGS [r10_602_TrMRF] | -0.0238 kcal/mol |
| SGKDTLILELVLEVDSEEQAQAIRDIFEALGYKVEVRVFPLPDGLIVFVRVEVPVPPPPPSLEDPELLAKSA [r9_863_TrMRF] | 1.92 kcal/mol |
| SMIKIKLKNGMEITIEKTPEKVKIKLKATGKEIELPLEELENMTEEELLEKLRKLAEELGMEVEEVEIEPSA [r9_1211_TrROS_Hall] | 3.18 kcal/mol |
| SAGGSAGGSWIWVIKIENPEKGREYTFFIPGPLEDIKDHIREWNPDPDVKVEIQRIPVSPEAFSAGGSAGGS [r12_92_TrROS] | 1.68 kcal/mol |

====

# Measurement Description: folding stability dG unfold from chymotrypsin proteolysis; higher = more stable
Use folding stability dG unfold to assign classes; range list: lower = under 1 kcal/mol, middle = from 1 kcal/mol up to 3 kcal/mol, upper = 3 kcal/mol and over

| Sequence Code | Category |
| --- | --- |
| SAGGSAMKTSLSRSTSTDPSDPNVTYKTTTTFLPDNTVLTNTTTTTRVGSSDVTTTTTTTTPIPAASAGGSA [r15_553_JUSTAS] | lower |
| SAGLKEIAKKLGLSEEKIKIKEIKKKKKVVYDKKTKKKYEKEEIVIKIEIVDPKTKKKYEIEIPLEEIKSAG [r5_517_TrROS_Hall] | middle |
| SAGGSAGGSKIEITVKTKEELLEAIRKLAEEKGYEIVSIKIEKLPDGTYKVTIEIRKNDPLLKSAGGSAGGS [r12_647_TrROS_Hall] | middle |
| SAGGMKITVTPSTDPNTPLTRETVTVPPTADPEAVAEKLRRAYPDGSTTTVTPRPDGTIVVTTTLPASAGGS [r8_255_JUSTAS] | lower |
| SAGGSAGGSMTTTVERSPSGKTTVTETETRKDAAGNEYTLVTTTTFDPNTTTSTTTTTVVPVSSAGGSAGGS [r12_57_JUSTAS] | middle |
| SAGGEKTTLTLTLTLTLPPVTTVTYDPETGELRVETRTTTLTLTITVTADSPEEAERALRELLKKLGLSAGG [r13_35_TrROS_Hall] | upper |
| SAGGSAGGSMVEEFLASLPPDATVTVDPSTGVVTVSLPAEGRTLTLTVDTATGTVTETERRPESAGGSAGGS [r12_82_JUSTAS] | middle |
| SAGGSAGGSPVVLYEVDPSTNSVTLTVEVLHPDGTPLRKEYTTNGDPLEAALRFAKAVLEEAGSAGGSAGGS [r20_33_TrMRF] | lower |
| SAGGSAMPLLKPPKTIRLRILFKVPEPGKELDITEEAVRELFNPFGAKVRIYRDGDYVLIEVEFVVSAGGSA [r15_377_TrMRF] | upper |
| SKVKIVKVEYDKETNVVTVTIYDEKTKKKIEIRYTPGKVEIVVEIDGKKLVLKFKTKEEALEAAKKLLKKSA [r9_527_TrROS_Hall] | upper |
| SAGGSAGGMKLLKVVVERKDGSKRELEIPEELLVELGRPPTPEEIAKLLGIKPEDIVRVEIEDVSAGGSAGG [r6_166_TrMRF] | upper |
| SAGGSAMIVIPVDPNDPAAEKTVAEAIAAGKDVIIRSPSGKYTFYKPDGSKKELSSEEEIKKAGLESAGGSA [r15_94_JUSTAS] | lower |
| SAGMTVSTETTTFTDPAGFETTVTTLTTTHPDGSVTSTPTTTVTAVPVPPPPAPVPVDPANPDNPALLSAGG [r19_12_JUSTAS] | lower |
| SAGDAVRIPIRFPNGMQIYSIEINPDENTIKIKIYDPNGYRKFEWTFPVKDPNGDPKLVGKIKFYMRPPSAG [r5_434_TrROS] | middle |
| SAGGSAGGSAKIWIILKDADEARDRIEELFGPGVRIEPVNIQRWDGKVYVMIEIEIPPNMTSAGGSAGGSAG [r3_87_TrROS] | middle |
| SEMTAEELAARLAERLAEEHPGEEVTVEIEVEAEVVDEETGETRTVRVTVTLRFRDGKVEVVDVKVEELPSA [r9_361_TrROS_Hall] | upper |
| SAGSNKKITAEELAKLLEEKFKEKFPDAEIKVHAHAEPRPDDKLIIHVHFEIYRKKPKIGEFDVVIEFESAG [r5_696_TrMRF] | middle |
| SAGGSAGGKPEVKITLVIEVETEEELKALAEELAALLGAEVEVRVERREDGRLLVTVTITVPAESAGGSAGG [r6_719_TrROS_Hall] | middle |
| SMIDIEISTDPNNPNVITVTAKYPDPEKAKEYLEKKLKEEYDVISISYEYEPENPIITFTFTYASPEKPQSA [r9_1120_JUSTAS] | upper |
| SAGGMEEIEVEFEFTLPDGRTLRLTVRVRRFDGGIVVEVDVGGEEEEEREFMEEVAREIAERIAEEESAGGS [r8_416_TrMRF] | upper |
| SAGGGMNEKVIEIEVTVTAPDGKVTTNPTTVVSNSLEEVKASIKASIPPNWSITVTVLKTKSLKEVLSSAGG [r13_513_JUSTAS] | lower |
| SAGGSAGGSAGMKEGEKPKVKIEIDVLIEVDGKLYRVRAEAEINEDGEITIKVEIEELPDSAGGSAGGSAGG [r11_551_TrROS_Hall] | upper |
| SAGGSAGGSAGGEKKWIFMVSFRHPDGKERKFTFPWNDLEEIKENLPGIDDVEIEWMPMSAGGSAGGSAGGS [r10_437_TrROS] | lower |
| SAGGSAGGPLVVILPDPETGLFHVRVRYPDGTVESLGPFPSLEEALEALPSEGLGRVEVRPYLKSAGGSAGG [r6_307_TrMRF] | middle |
